Target: SARS-CoV-2 NSP3 Mac1 (Severe acute respiratory syndrome coronavirus 2)
Assay: biochemical
Type: binding
Details: Ki***, Ki estimation from HTRF-derived IC50, Cheng-Prusoff, peptide 400nM, Kd 2.68µM
Documented Ki across a set of compounds
Please reply with the bare figure in µM and do not write the unit itself.

{"columns": ["compound", "Ki, µM"],
 "data": [
  ["O=C(Nc1ccc(C(=O)NCc2c(C(=O)O)[nH]c3ccccc23)cc1)NC1CC1 [Z8539_0027]", 6.6]
]}

Here is the next item to consider.
Reported Ki, compound O=C(Nc1ccccc1)Nc1ccc(C(=O)NC2c3cccc(O)c3CC2C(=O)O)cc1 (centres unmarked) [Z8539_0023] : ____
0.4

====

Documented IC50 across a set of compounds
Target: SARS-CoV-2 NSP3 Mac1 (Severe acute respiratory syndrome coronavirus 2)
Test: biochemical
Format: binding
Details: IC50, HTRF ADPr-peptide displacement from SARS-CoV-2 Mac1
Please reply with the bare figure in µM and do not write the unit itself.

Worked set:
{"columns": ["compound", "measured"],
 "data": [
  ["O=C(Nc1ccc(C(=O)NC2c3cccc(O)c3CC2C(=O)O)c(O)c1)NC1CC1 (stereo not shown) [Z8539_0072]", 0.4],
  ["O=C(Nc1ccc(C(=O)NCc2c(C(=O)O)[nH]c3ccccc23)cc1)NC1CC1 [Z8539_0027]", 7.6],
  ["O=C(Nc1ccccc1)Nc1ccc(C(=O)NC2c3cccc(O)c3CC2C(=O)O)cc1 (stereo not shown) [Z8539_0023]", 0.5]
]}

Reported IC50, compound O[C@H]1CCCC[C@H]1Nc1ncnc2[nH]ccc12 (relative stereo) [SRH-0015] : ____
132

====

Target: SARS-CoV-2 NSP3 Mac1 (Severe acute respiratory syndrome coronavirus 2)
Format: binding
Details: PanDDA event map, 1-BDC of the hit dataset; crystal soak, compound concentration 100 mM
Please use Fulfilled whenever 1-BDC is not below 0.3, and Not fulfilled whenever it is.

Recorded results for 3 compounds are shown here.
{"columns": ["compound", "qualitative_label"],
 "data": [
  ["CC1CC(C(=O)O)N1C(=O)c1cc(O)nc2ccc(F)cc12.O=C(O)C(F)(F)F (stereo not drawn)", "Not fulfilled"],
  ["Nc1nc(N)c2ncn(Cc3csc(C4CC4)n3)c2n1", "Fulfilled"],
  ["Cc1c[nH]c2ncc(C(=O)N(C)c3nnn[nH]3)cc12", "Not fulfilled"]
]}

Note: attention shifts to another entry.
In plain terms: is recorded 1-BDC at least 0.3 for `CCc1c[nH]c2ncc(-c3c(C(=O)O)c(C)nn3C)cc12` ?
Not fulfilled

====

Molecular target: SARS-CoV-2 NSP3 Mac1 (Severe acute respiratory syndrome coronavirus 2)
Design: contains a conserved macrodomain enzyme (Mac1); Differential scanning fluorimetry of Mac1, maximum thermal upshift
Conditions: maximum shift over tested concentrations; binder
Documented DSF max dTma across a set of compounds
Please reply with the bare figure in °C and do not write the unit itself.

{"columns": ["compound", "quantity_name", "unit_descriptor", "measured"],
 "data": [
  ["Cc1nnc2n1CC(C(=O)O)N(C(=O)c1ccc(NC(=O)NC3CC3)cc1)C2 (centres unmarked) [Z8539_0037, 8539_0037]", "DSF max dTma", "°C", 2.36],
  ["c1csc(CC2CCN(c3ncnc4[nH]ccc34)C2)n1 (centres unmarked) [Z6891, ZINC000897286891]", "DSF max dTma", "°C", 0.15],
  ["O=C1NCCCC1Nc1ncnc(-c2ccccc2)n1 (centres unmarked) [Z9020, ZINC000884519020]", "DSF max dTma", "°C", 1.01],
  ["Cc1nnc(CNc2cnc(N)c(Cl)n2)n1C1CC1 [Z1964, ZINC000893101964]", "DSF max dTma", "°C", 0.12],
  ["CC1C(C(=O)O)CCCN1S(=O)(=O)c1c[nH]c2ncc(Cl)cc12 (centres unmarked) [R3575, REAL300016493575]", "DSF max dTma", "°C", 0.15]
]}

Reported DSF max dTma, compound O=C(O)CCC1CCCN(c2ncnc3[nH]c4cc(F)ccc4c23)C1 (centres unmarked) [LL1_0018] : ____
2.71

Queued: O=C1COc2cc(C(=O)NC3c4cccc(O)c4CC3C(=O)O)ccc2N1 (centres unmarked) [Z8539_0014, 8539_0014]
1.83

Queued: O=C(NC1c2cccc(O)c2CC1C(=O)O)c1cnc(NC2CCOCC2)cn1 (centres unmarked) [Z8539_0007, 8539_0007]
3.42
